Exercise: for every item that follows, state its recorded PBM binding z-score.
tested on: PPARg:RXRa IVT, anti-PPARg (NR concentration 270 nM, RXRa partner concentration 90 nM); experiment: PBM binding z-score (relative to random genomic background probes); higher = stronger binding; sequences stand for … in GC…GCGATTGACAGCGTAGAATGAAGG

Solved cases (3 shown):
Residues	Measurement target	Measured result
GCTGCTAGGTCAACTGATGGTCAGCAAAAGCTCG	PPARg:RXRa IVT, anti-PPARg (NR concentration 270 nM, RXRa partner concentration 90 nM)	3.95
TGAATGAGGTTATAAGATCAGGGAACGTTGCAAA	PPARg:RXRa IVT, anti-PPARg (NR concentration 270 nM, RXRa partner concentration 90 nM)	1.54
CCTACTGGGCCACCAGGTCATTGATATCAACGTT	PPARg:RXRa IVT, anti-PPARg (NR concentration 270 nM, RXRa partner concentration 90 nM)	6.19

For each of the sequences below, state PBM binding z-score.
1. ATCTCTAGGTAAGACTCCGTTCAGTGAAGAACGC
2. ACTAGCAGGTCAAGTTTGGGTCACTCAAACAAAG
3. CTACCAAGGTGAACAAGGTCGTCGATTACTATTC
4. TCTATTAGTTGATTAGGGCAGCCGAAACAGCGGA
5. TCTTGTAGATAAGCAGGTTAAGAAAGCTGGCCAA
6. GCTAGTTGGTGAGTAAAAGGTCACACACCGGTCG
7. ATGTGTAGGTTAGCTGGGGTCATTCAGACTAGGC

stdout:
1: 1.25; 2: 4.73; 3: 2.94; 4: 1.17; 5: 0.184; 6: 2.74; 7: 3.09

Quick batch: PBM binding z-score for everything below.
1. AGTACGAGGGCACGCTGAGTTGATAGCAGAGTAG
2. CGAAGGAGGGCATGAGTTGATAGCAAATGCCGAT

stdout:
1. 2.52
2. 2.1

###

system: PPARg:RXRa 30nM:10nM, anti-RXR (NR concentration 30 nM, RXRa partner concentration 10 nM); assay: PBM binding z-score (relative to random genomic background probes); higher = stronger binding; sequences stand for … in GC…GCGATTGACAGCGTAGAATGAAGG
Lab note: compare PBM binding z-score against 2. Equal or greater, write true (1). Smaller, write false (0).

Answered examples (4):
Residues	Label class
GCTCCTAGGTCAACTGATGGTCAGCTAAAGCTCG	false (0)
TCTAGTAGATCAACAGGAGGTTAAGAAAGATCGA	true (1)
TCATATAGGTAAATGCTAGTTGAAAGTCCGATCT	true (1)
GCTAGTTGATCAGTAAAAGGTCACACACCGGTCG	false (0)

stdin: Check this sequence for PBM binding z-score at or above 2: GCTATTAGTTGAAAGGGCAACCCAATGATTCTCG
stdout: false (0)

stdin: Hi team, for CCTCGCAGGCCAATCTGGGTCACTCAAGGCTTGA , is the recorded PBM binding z-score at or above 2?
stdout: false (0)

stdin: Hello, I need to know if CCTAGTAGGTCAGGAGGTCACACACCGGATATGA has measured PBM binding z-score not below 2. Thanks!
stdout: true (1)

stdin: Check the entry AGAACGAGGGCAATGAGTGGATAGCACGGGTGGC : does PBM binding z-score equal or exceed 2?
stdout: false (0)

stdin: Test whether the sequence GGAACGAGGGCAAGTCGATAGCAGAGTTTGATGG records PBM binding z-score of 2 or higher.
stdout: false (0)

stdin: Check if PBM binding z-score >= 2 (inclusive). Item: ACAGACAGGTGAGTGAAGGTAACTCGGCTGGACG
stdout: false (0)

stdin: Does the reported PBM binding z-score for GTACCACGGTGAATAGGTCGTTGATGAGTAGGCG fall at or above the 2 mark?
stdout: false (0)

stdin: Check if PBM binding z-score >= 2 (inclusive). Item: TCTATTAGTTGAAGGTCAACCGACGAGTCCGTTT
stdout: true (1)

###

system: PPARg:RXRa 90nM:30nM, anti-RXR (NR concentration 90 nM, RXRa partner concentration 30 nM); assay: PBM binding z-score (relative to random genomic background probes); higher = stronger binding; sequences stand for … in GC…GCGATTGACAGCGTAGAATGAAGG
Respond with T for PBM binding z-score values of 0.9 and above, F for values below.

stdin: hey, is PBM binding z-score for this one >= 0.9? TCTTGCAGATCAAAGGTTAAGAAAGCCGAAGCCT
stdout: T

stdin: Form field: PBM binding z-score at least 0.9? Entry: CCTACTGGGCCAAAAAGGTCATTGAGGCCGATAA
stdout: T

stdin: Check the entry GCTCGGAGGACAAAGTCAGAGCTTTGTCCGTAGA : does PBM binding z-score equal or exceed 0.9?
stdout: F

stdin: Does PBM binding z-score meet or surpass 0.9 for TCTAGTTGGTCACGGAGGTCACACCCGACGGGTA ?
stdout: T

stdin: Hi team, for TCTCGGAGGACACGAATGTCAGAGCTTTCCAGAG , is the recorded PBM binding z-score at or above 0.9?
stdout: T

stdin: Does the reported PBM binding z-score for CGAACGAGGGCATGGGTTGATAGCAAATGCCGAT fall at or above the 0.9 mark?
stdout: T

stdin: PBM binding z-score >= 0.9 for ATCTCTAGGTAAAGTTCAGAGAAAGATCGATAGA ?
stdout: T

stdin: Test whether the sequence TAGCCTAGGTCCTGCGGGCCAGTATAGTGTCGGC records PBM binding z-score of 0.9 or higher.
stdout: F

###

test system: LXRa:RXRa (NR concentration 270 nM, RXRa partner concentration 90 nM); assay: PBM binding z-score (relative to random genomic background probes); higher = stronger binding; sequences stand for … in GC…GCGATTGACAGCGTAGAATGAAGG
Would you mind sorting the entries by PBM binding z-score according to these classes? bin 1 (below 0.2), bin 2 (0.2 to below 4), bin 3 (4 or more)

Example entries and their recorded answers appear below.
Residues	Measurement target	Label class
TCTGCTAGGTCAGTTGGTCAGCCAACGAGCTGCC	LXRa:RXRa (NR concentration 270 nM, RXRa partner concentration 90 nM)	bin 2
CCGACGGGGGCATAAGGTTACCATAAGCCAGCCC	LXRa:RXRa (NR concentration 270 nM, RXRa partner concentration 90 nM)	bin 3
TCGAGTAGGTTAGTCGTGGCATTCAGCCAACATA	LXRa:RXRa (NR concentration 270 nM, RXRa partner concentration 90 nM)	bin 1
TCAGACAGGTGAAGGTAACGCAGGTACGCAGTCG	LXRa:RXRa (NR concentration 270 nM, RXRa partner concentration 90 nM)	bin 2
AATACAGGGTCACTAGGCGAGAGTAGGTACGAAT	LXRa:RXRa (NR concentration 270 nM, RXRa partner concentration 90 nM)	bin 3

Alright, here's another sequence for you.
stdin: // return the class label for CCGACCGGGGCAGAAAGGTTACCATACCATCCGG
stdout: bin 2

###

system: PPARg homodimer (NR concentration 180 nM); assay: PBM binding z-score (relative to random genomic background probes); higher = stronger binding; sequences stand for … in GC…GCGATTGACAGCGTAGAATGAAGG
Label TRUE when PBM binding z-score is at or above 1; anything below gets FALSE.

Residues	Label class
AATACAGGGTCACAAGGCCAGAGTAGGTACGAAT	TRUE
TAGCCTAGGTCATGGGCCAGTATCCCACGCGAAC	TRUE
TCGCGGAGGACACGAAGGTCAGAGCTTTCCAGAG	TRUE

stdin: Assess whether reported PBM binding z-score for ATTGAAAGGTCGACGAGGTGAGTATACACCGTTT sits at 1 or higher.
stdout: TRUE

stdin: # bool: PBM binding z-score of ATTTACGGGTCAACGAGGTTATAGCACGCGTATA >= 1
stdout: TRUE

stdin: Is reported PBM binding z-score greater than or equal to 1 here: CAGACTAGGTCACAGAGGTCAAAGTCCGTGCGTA
stdout: TRUE

###

tested on: VDR:RXRa (NR concentration 270 nM, RXRa partner concentration 90 nM); test: PBM binding z-score (relative to random genomic background probes); higher = stronger binding; sequences stand for … in GC…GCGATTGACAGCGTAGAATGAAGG
If the reported PBM binding z-score equals or exceeds 1, assign 1. If not, assign 0.

Take a look at these entries with their results.
Residues	Measurement target	Label class
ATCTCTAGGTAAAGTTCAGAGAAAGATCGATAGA	VDR:RXRa (NR concentration 270 nM, RXRa partner concentration 90 nM)	1
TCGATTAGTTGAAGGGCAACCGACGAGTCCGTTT	VDR:RXRa (NR concentration 270 nM, RXRa partner concentration 90 nM)	0
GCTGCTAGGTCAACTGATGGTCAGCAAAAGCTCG	VDR:RXRa (NR concentration 270 nM, RXRa partner concentration 90 nM)	1
TCTATTAGTTGATTAGGGCAACTGAAACAGCGGA	VDR:RXRa (NR concentration 270 nM, RXRa partner concentration 90 nM)	0
GATACAGGGTCAGCTAGAGGCCCGAGTATGGAAA	VDR:RXRa (NR concentration 270 nM, RXRa partner concentration 90 nM)	1
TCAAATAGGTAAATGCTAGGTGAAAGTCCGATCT	VDR:RXRa (NR concentration 270 nM, RXRa partner concentration 90 nM)	0
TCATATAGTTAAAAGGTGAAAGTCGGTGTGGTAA	VDR:RXRa (NR concentration 270 nM, RXRa partner concentration 90 nM)	1
CAGCCTAGATCAGGGCCAGTATAGGAGGAACGTT	VDR:RXRa (NR concentration 270 nM, RXRa partner concentration 90 nM)	0
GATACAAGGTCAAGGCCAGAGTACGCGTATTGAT	VDR:RXRa (NR concentration 270 nM, RXRa partner concentration 90 nM)	1
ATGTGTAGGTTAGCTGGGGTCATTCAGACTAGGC	VDR:RXRa (NR concentration 270 nM, RXRa partner concentration 90 nM)	1

stdin: hey, is PBM binding z-score for this one >= 1? GCGACTGGGGCGAAGCAGGTTACCATAAGGTTGG
stdout: 0

stdin: State whether the measured PBM binding z-score reaches 1, counting equality as reaching it, for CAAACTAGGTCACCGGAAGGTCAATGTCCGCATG
stdout: 1

stdin: Could you verify whether the entry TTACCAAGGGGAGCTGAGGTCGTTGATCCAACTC shows PBM binding z-score of no less than 1?
stdout: 1

stdin: Form field: PBM binding z-score at least 1? Entry: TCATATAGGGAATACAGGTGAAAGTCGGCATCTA
stdout: 1

stdin: Does the sequence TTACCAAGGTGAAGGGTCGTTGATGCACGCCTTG have recorded PBM binding z-score that is 1 or more?
stdout: 1

stdin: Could you please find out whether GATACAGGGTCAGCTAGAGGACAGAGTATGGAAA has PBM binding z-score that meets 1 or exceeds it?
stdout: 1

stdin: Dear colleague, could you confirm whether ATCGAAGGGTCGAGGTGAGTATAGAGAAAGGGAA has PBM binding z-score at or above 1?
stdout: 1

stdin: Determine whether measured PBM binding z-score meets or exceeds 1 for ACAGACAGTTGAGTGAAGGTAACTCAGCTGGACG
stdout: 0
